# System: MS2 coat protein
# protocolText: apparent KD of MS2 coat protein; higher = weaker reporter binding
# protocolConditions: Eterna round: R107; input ligand: theophylline 20 uM
apparent KD of MS2 coat protein vs 20 nM: at or above is yes (1), below is no (0).

Answered examples (9):
AGAGUCUAGUCGGCCGCCACUCAUGUCCGAAGGACAUGAGGAUCACCCAUGUACCAAUGGUACAUGAGGACCGGGACUGGACUCA [Omei Tryp B SS C v3]	yes (1)
GGGCCUAUCUGAAGGAGCGACAUGAGGAUCACCCAUGUCUCCCGUUAUGGGAGUUCUUUAGGUCAGGUAGGUCGCAGGUAGGGCC [#1 Exclusion - Arginine B Attempt #5 (Inspired by Omei)]	no (0)
ACAUGAGGAUCACCCAUGUUUGUUGUUCCUCGAGGACCGGUACGGCCGCCACUCGAACGAGUGGCGCGCGAGUGCGCACUCGCGC [aOa]	no (0)
UCCUUAGAUACUGAUACCAGACUACAGUAAACAUGAGGAUCACCCAUGUUUGAUCACUAAGUCCCUUGGCAGCAGGUACAUGGGA [Theo B SS r1]	no (0)
UCAUGCAGGUCGGCCGCCACUACACACAUGAGGAUCACCCAUGUAGUUACUGGGUGAAGUGGCAGUAGGACCGGGACCUGCACAC [Brourdmod17]	yes (1)
GCUGUACCAUGAAGGAGCGCUUUAAUUAUAGAAGAUACAUGAGGAUCACCCAUGUUCCUCGAGCAGGUAGGUCGCAUGGUACAGC [SSAB #18]	yes (1)
AUAACAUGAGGAUCACCCAUGUAGAGUGAUACCAGACUACGUAAUGUCCCUUGGCAGCACAAGUAAAGUUACGAAUAUUGAUAGA [JR_SSTheophyA_Sub003]	yes (1)
AGACAUGAGGAUCACCCAUGUAGCAUGGAUACCAGAUGCAGAUUUAUCCCUUGGCAGCUGUGGUAAAGUGAUGCAUUGCUCCUAG [Exclusion - Theophylline A (Freestyle 6)]	yes (1)
ACAUUUAACUGAAGGAGCGUGAUAAACAUGAGGAUCACCCAUGUACCAAAGAUUUUCAGUUCACAGGUAGGUCGCAGACUAAUGA [JR_ExcArginiB_Sub016]	no (0)

Query sequence follows.
apparent KD of MS2 coat protein >= 20 nM for AAAAGAGGUGGAAGGAGCGGGAGACAUGAGGAUCACCCAUGUGAUGUGACGAAAGGGUCAGCCCAGGUAGGUCGCCAUGUCGAAA [yuyymullin] ?
yes (1)
